- protocol-details: inhibitors of TNFa-induced NFkB p65 translocation, primary screen, imaging, HUVEC, MLSMR starter and 10KST1 sets (AID 438);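 further: compound added about 3h40 before a 20 min TNFalpha stimulation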
- experimental-setup: HUVEC TNFa-induced p65 nuclear translocation; measured here: nuclei count (cytotoxicity indicator), at 2.08 µM
I would appreciate it if you labelled entries Fulfilled when cell count is 500 or higher, otherwise Not fulfilled.

Some solved entries appear below for comparison.
molecule | category
O=C(OCc1ccccc1F)c1ccc2c(c1)OCCO2 | Not fulfilled
COc1ccc(C2C(C(=O)N3CCCC3)c3cc(OC)c(OC)cc3C(=O)N2C)cc1 (stereo unspecified) | Fulfilled

Assess whether reported cell count for `O=S1(=O)C=C(Sc2nc3ccccc3s2)c2ccccc21` sits at 500 or higher.
Fulfilled

Assess whether reported cell count for CC(NC(=O)C1CC1)C(c1cccs1)N1CCN(c2ccccc2)CC1 (stereo unspecified) sits at 500 or higher.
Fulfilled

---

- system-under-test: Voltage-gated potassium channel subunit beta-2 (Rattus norvegicus) (UniProt P62483)
- Sequence (P62483 whole entry, looked up): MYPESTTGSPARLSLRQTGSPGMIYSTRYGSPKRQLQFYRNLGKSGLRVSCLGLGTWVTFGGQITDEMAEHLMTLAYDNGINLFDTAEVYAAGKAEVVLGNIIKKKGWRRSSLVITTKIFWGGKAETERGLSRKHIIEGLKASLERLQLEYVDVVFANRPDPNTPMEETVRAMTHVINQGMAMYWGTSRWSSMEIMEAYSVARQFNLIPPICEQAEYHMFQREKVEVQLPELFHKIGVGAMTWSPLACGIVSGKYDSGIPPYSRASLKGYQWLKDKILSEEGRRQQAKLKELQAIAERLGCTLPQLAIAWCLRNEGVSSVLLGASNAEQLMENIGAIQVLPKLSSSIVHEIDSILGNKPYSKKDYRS
- protocol-details: inhibitors of rat Kvbeta2 reductase activity – biochemical, NADPH fluorescence, primary screen (AID 622);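 further: slope of raw intensity against log time taken from 70 to 1610 s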
- experimental-setup: recombinant KvBeta, 4-cyanobenzaldehyde reduction, at 10 µM, stronger effect = higher value
endpoint-label: fluorescence slope
One number for each entry.

Here are 2 molecules together with their reported answers.
molecule | system-under-test | fluorescence slope
CC1Cc2nc(SCC(=O)Nc3ccccc3F)n(C)c(=O)c2S1 (stereo not drawn) | Voltage-gated potassium channel subunit beta-2 (Rattus norvegicus) (UniProt P62483) | -0.505
Cc1c(Cl)cccc1N1C(=O)c2ccccc2C1=O | Voltage-gated potassium channel subunit beta-2 (Rattus norvegicus) (UniProt P62483) | -0.502

# evaluate next
Item: CN1CCN(C(=O)NC2CCCN2S(=O)(=O)c2ccc(Cl)cc2)CC1 (stereo not drawn) Test system: Voltage-gated potassium channel subunit beta-2 (Rattus norvegicus) (UniProt P62483) Read-out: fluorescence slope Value: ?
-0.493

---

- system-under-test: Voltage-gated potassium channel subunit beta-2 (Rattus norvegicus) (UniProt P62483)
- protocol-details: inhibitors of rat Kvbeta2 reductase activity – biochemical, NADPH fluorescence, primary screen (AID 622);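 further: slope of raw intensity against log time taken from 70 to 1610 s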
- experimental-setup: recombinant KvBeta, 4-cyanobenzaldehyde reduction, at 10 µM, stronger effect = higher value
endpoint-label: fluorescence slope
Give bare numbers.

compound | experimental-value
Fc1cccc(Cl)c1Cn1nnc2c(NCc3ccccn3)ncnc21 | -0.514

Respectfully, I request fluorescence slope for each entry included below.
1. COCCOC(=O)/C=C1/NC(=O)CS1
2. CSCCC(NS(=O)(=O)c1ccc2c(c1)oc(=O)n2C)C(=O)NC1CCCCC1 (centres undefined)

1. -0.606
2. -0.584

Respectfully, I request fluorescence slope for each entry included below.
1. CCOCCCNC(=O)C1CCN(S(=O)(=O)c2c(C)noc2/C=C\c2ccc(OC)cc2)CC1
2. Cc1noc(/C=C/N(C)C)c1S(=O)(=O)N1CCCC(C(=O)NCCC2=CCCCC2)C1 (centres undefined)
3. COc1cccc(NC(=O)N2CCN(C(=O)C(Cc3ccc(OC)c(OC)c3)NC(C)=O)CC2)c1 (centres undefined)
4. COC(=O)c1ccc(NC(=O)CN2CCN(c3ccc(Cl)cc3)CC2)cc1
5. COc1ccc(OC)c(NC(=O)CCNS(=O)(=O)c2cccs2)c1

[-0.36, -0.548, -0.355, -0.571, -0.533]

Respectfully, I request fluorescence slope for each entry included below.
1. CCc1nc(SCc2cc(Cl)ccc2OC)n[nH]1
2. CN(C)c1cc(NC(=O)CN2CCOCC2)c2ccccc2n1
3. CCCSC1=C(C#N)C(c2cc(OC)ccc2OC)CC(=O)N1 (centres undefined)
4. Cc1cc(Nc2ccc(N3CCC(C)CC3)cc2)n2ncnc2n1
5. CN(CC(=O)Nc1ccc2c(c1)OCCO2)S(=O)(=O)c1ccc(Br)s1
6. Cc1cccc(C)c1NC(=O)CS(=O)CC(=O)NC1CCCc2ccccc21 (centres undefined)
7. COC(=O)c1ccsc1NC(=O)CN1C(=O)CCC1=O
8. CCOc1ccc(NC(=O)CSc2nccn2C)cc1

1: -0.36; 2: -0.549; 3: -0.518; 4: -0.602; 5: -0.403; 6: -0.61; 7: -0.476; 8: -0.28
